assay: qHTS assay to identify small molecule agonists of H2AX - cell viability counter screen (AID 1224847); conditions: CHO-K1 viability, CellTiter-Glo luminescence, 3 h; series mostly up to 154 µM; further: nearly all actives have a fitted effect of over 30% in size
Records with an inconclusive call do not appear. Calls of active or inactive are those of the source. The call rests on the fitted dose curve.
Outcomes: yes (active), no (inactive)

>>> df
                                    molecule  classname
 0  COC(=O)Nc1nc2ccc(S(=O)c3ccccc3)cc2[nH]1 (centres undefined)         no
 1                               CCCCOCCOCCO         no
 2                                 CCCC(=O)O         no
 3                          Cc1ccc(C)c(O)c1C         no
 4                         CCCCC/C=C/C=C/C=O         no
 5                              CCCCCCCCCCCO         no
 6                              C/C=C/C(=O)O         no
 7  c1ccc2cc(Nc3ccc(Nc4ccc5ccccc5c4)cc3)ccc2c1         no
 8  O=C1OC2(c3cc(Br)c(O)c(Br)c3Oc3c2cc(Br)c(O)c3Br)c2c(Cl)c(Cl)c(Cl)c(Cl)c21        yes
 9                               Cc1ncc[nH]1         no
10                 CC(=O)CC/C=C(\C)CCC=C(C)C         no
11              COc1c(Cl)c(Cl)c(Cl)c(Cl)c1Cl         no
12           O=C=Nc1ccc(Cc2ccc(N=C=O)cc2)cc1         no
13                    CCCCNS(=O)(=O)c1ccccc1         no

----------
biological target: Nuclear receptor ROR-gamma (Homo sapiens) (UniProt P51449); assay: qHTS assay to identify small molecule antagonists of the retinoid-related orphan receptor gamma (ROR-gamma) signaling pathway (AID 1159521; further: nearly all actives have a fitted effect of over 50% in size); details: Tet-on RORgamma CHO cells, RORE-luciferase, 16 h; series mostly up to 92.4 µM
Inconclusive results are not listed. Activity calls are given as the source filed them. Calls come from the whole dose curve; as a rule, active = well fitted inhibition curve with a large enough effect in the repeat runs; inconclusive = weak or mixed curves, or effect the other way; inactive = no such curve, though single readings can be large or run the other way.
Labels: active, inactive

In [3]: df
Out[3]:
                                    molecule  classname
 0  CC(=O)C1(C)CC2=C(CCCC2(C)C)CC1C (stereo not given)   inactive
 1        O=[N+]([O-])c1ccc2c(c1)Cc1ccccc1-2   inactive
 2                                 CC(C)OC=O   inactive
 3                    CCCCNS(=O)(=O)c1ccccc1   inactive
 4       O=C(Nc1ccc(Cl)cc1)Nc1ccc(Cl)c(Cl)c1     active
 5                          CCCCCCCCCC(=O)OC   inactive
 6  Cc1c(OCC(F)(F)F)ccnc1CS(=O)c1nc2ccccc2[nH]1 (stereo not given)   inactive
 7                   S=C(NC1CCCCC1)NC1CCCCC1     active
 8       Cc1cccc(N(C)C(=S)Oc2ccc3ccccc3c2)c1   inactive
 9  CC(=O)Oc1ccccc1C(=O)Nc1ncc([N+](=O)[O-])s1   inactive
10         O=C(O)c1ccccc1Nc1cccc(C(F)(F)F)c1   inactive
11      CCCCC(CC)COCC1CO1 (stereo not given)   inactive
12        CCC(C)c1ccccc1O (stereo not given)   inactive
13  CC(C(=O)O)c1cccc(C(=O)c2ccccc2)c1 (stereo not given)   inactive
14  O=C(COc1ccc(Cl)cc1)N1CCN(Cc2ccc3c(c2)OCO3)CC1   inactive
15  COC(=O)Nc1nc2ccc(S(=O)c3ccccc3)cc2[nH]1 (stereo not given)   inactive
16                                 CCCC(=O)O   inactive
17                            CCCCOCCOCCOCCO   inactive
18                       c1cc(-c2ccncc2)ccn1   inactive
19                        COc1ccccc1/C=C/C=O   inactive
20                                Nc1ccccc1N   inactive
21                    O=C(c1ccccc1)c1ccccc1O   inactive
22                              C/C=C/C(=O)O   inactive
23                         CCCCC/C=C/C=C/C=O   inactive
24          O=C1c2cccc(O)c2C(=O)c2c(O)cccc21   inactive
25   COC(C)COC(C)COC(C)CO (stereo not given)   inactive
26                                OC(CCl)CCl   inactive
27  Cc1c(C(N)=O)cc([N+](=O)[O-])cc1[N+](=O)[O-]   inactive
28               CN(C)c1nc(N(C)C)nc(N(C)C)n1   inactive
29       Nc1ccc(S(=O)(=O)Nc2cnc3ccccc3n2)cc1   inactive
30               CCC(C)CO (stereo not given)   inactive
31                              O=CCc1ccccc1   inactive
32  c1ccc2cc(Nc3ccc(Nc4ccc5ccccc5c4)cc3)ccc2c1   inactive
33  O=C(Nc1ccc([N+](=O)[O-])cc1Cl)c1cc(Cl)ccc1O   inactive
34                         Cc1cccc(C(=O)O)c1   inactive
35  COc1cccc2c1C(=O)c1c(O)c3c(c(O)c1C2=O)C[C@@](O)(C(=O)CO)C[C@@H]3O[C@H]1C[C@H](N)[C@H](O)[C@H](C)O1   inactive
36                 CC(=O)CC/C=C(\C)CCC=C(C)C   inactive
37                              CCCCCCCCCCCO   inactive
38              COc1c(Cl)c(Cl)c(Cl)c(Cl)c1Cl   inactive
39                            CC(=O)c1ccccn1   inactive
40  CC(C)CC(C)(O)C#CC(C)(O)CC(C)C (stereo not given)   inactive
41                           OC1CCCCCCCCCCC1   inactive
42                                 CCOCCOCCO   inactive
43  C#C[C@]1(O)CC[C@H]2[C@@H]3CCc4cc(OC)ccc4[C@H]3CC[C@@]21C   inactive
44           O=C=Nc1ccc(Cc2ccc(N=C=O)cc2)cc1   inactive
